Entries with reported pIC50 on Sodium-dependent dopamine transporter (Homo sapiens)
Sequence (Q01959 whole entry): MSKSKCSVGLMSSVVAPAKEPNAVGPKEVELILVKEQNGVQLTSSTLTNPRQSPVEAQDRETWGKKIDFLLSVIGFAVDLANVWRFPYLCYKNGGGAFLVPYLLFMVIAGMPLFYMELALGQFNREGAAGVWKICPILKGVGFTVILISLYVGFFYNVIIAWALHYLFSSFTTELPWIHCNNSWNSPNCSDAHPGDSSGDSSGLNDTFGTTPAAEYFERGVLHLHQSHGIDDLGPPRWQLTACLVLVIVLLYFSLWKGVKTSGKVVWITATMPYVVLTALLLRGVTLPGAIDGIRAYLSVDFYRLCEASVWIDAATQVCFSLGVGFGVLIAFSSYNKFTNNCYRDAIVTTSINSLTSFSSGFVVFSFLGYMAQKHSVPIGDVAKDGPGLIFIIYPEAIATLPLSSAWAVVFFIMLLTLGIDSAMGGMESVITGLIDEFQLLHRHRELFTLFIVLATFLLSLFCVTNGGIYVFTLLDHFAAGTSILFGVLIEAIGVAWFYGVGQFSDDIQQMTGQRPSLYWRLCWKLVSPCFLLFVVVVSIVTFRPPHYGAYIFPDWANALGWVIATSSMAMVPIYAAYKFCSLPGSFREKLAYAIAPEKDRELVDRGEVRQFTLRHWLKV
pIC50: −log10 of the molar value.
Reported Property: pIC50

# Molecule, Measured Result
measured = [
    ("COc1ccc(-c2c(C)noc2[C@@H]2C3CCC(C[C@@H]2c2ccc(Cl)cc2)N3C)cc1 (stereo partly specified)", 7.09),
    ("CN1C2CCC1[C@@H](c1cc(-c3ccc(F)cc3)no1)[C@@H](c1ccc(Cl)cc1)C2 (stereo partly specified)", 8.73),
    ("Cc1ccc(-c2cc([C@@H]3C4CCC(C[C@@H]3c3ccc(Cl)cc3)N4C)on2)cc1 (stereo partly specified)", 8.39),
    ("CN1C2CCC1[C@@H](c1cc(-c3ccc(Cl)cc3)no1)[C@@H](c1ccc(Cl)cc1)C2 (stereo partly specified)", 8.19),
    ("Cc1noc([C@@H]2C3CCC(C[C@@H]2c2ccc(Cl)cc2)N3C)c1-c1ccc(F)cc1 (stereo partly specified)", 6.95),
    ("COc1ccc(Cc2cc([C@@H]3C4CCC(C[C@@H]3c3ccc(C)cc3)N4C)on2)cc1 (stereo partly specified)", 8.02),
]

====

pKi: −log10 of the molar value.
Quick note: these are pKi numbers for system: Sodium-dependent noradrenaline transporter (Homo sapiens, UniProt P23975)
Sequence (P23975 whole entry): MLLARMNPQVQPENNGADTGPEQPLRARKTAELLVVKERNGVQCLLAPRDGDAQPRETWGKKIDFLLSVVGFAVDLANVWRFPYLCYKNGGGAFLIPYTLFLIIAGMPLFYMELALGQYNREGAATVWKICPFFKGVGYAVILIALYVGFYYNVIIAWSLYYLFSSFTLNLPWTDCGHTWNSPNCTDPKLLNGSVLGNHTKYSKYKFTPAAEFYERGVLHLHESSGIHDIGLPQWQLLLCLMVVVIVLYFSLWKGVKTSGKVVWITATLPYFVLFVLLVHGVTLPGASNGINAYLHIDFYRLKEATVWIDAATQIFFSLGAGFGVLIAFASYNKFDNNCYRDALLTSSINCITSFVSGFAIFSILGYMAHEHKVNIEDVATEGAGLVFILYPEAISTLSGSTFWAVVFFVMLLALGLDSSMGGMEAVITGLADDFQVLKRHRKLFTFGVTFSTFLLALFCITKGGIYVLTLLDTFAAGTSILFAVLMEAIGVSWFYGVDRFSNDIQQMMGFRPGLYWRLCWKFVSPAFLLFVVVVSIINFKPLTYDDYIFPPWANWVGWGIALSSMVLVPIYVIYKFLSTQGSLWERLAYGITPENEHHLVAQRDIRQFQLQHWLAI

# Compound, Limit Qualifier, pKi
records = [
    ("COc1ccc(Cc2cc([C@@H]3C4CCC(C[C@@H]3c3ccc(Cl)cc3)N4C)on2)cc1 (some centres undefined)", "=", 6.46),
    ("Cc1ccc(-c2cc([C@@H]3C4CCC(C[C@@H]3c3ccc(C)cc3)N4C)on2)cc1 (some centres undefined)", "<", 5.70),
    ("COc1ccc(Cc2cc([C@@H]3C4CCC(C[C@@H]3c3ccc(C)cc3)N4C)on2)cc1 (some centres undefined)", "=", 6.45),
    ("CN1C2CCC1[C@@H](c1cc(Cc3ccc(F)cc3)no1)[C@@H](c1ccc(Cl)cc1)C2 (some centres undefined)", "=", 6.36),
    ("Cc1noc([C@@H]2C3CCC(C[C@@H]2c2ccc(Cl)cc2)N3C)c1-c1ccc(Cl)cc1 (some centres undefined)", "=", 6.10),
    ("COc1ccc(-c2c(C)noc2[C@@H]2C3CCC(C[C@@H]2c2ccc(Cl)cc2)N3C)cc1 (some centres undefined)", "<", 5.70),
    ("COc1ccc(-c2cc([C@@H]3C4CCC(C[C@@H]3c3ccc(C)cc3)N4C)on2)cc1 (some centres undefined)", "=", 6.34),
    ("CN1C2CCC1[C@@H](c1cc(Cc3ccc(Cl)cc3)no1)[C@@H](c1ccc(Cl)cc1)C2 (some centres undefined)", "=", 6.17),
    ("Cc1ccc([C@H]2CC3CCC([C@H]2c2cc(-c4ccc(F)cc4)no2)N3C)cc1 (some centres undefined)", "=", 6.26),
    ("COc1ccc(-c2cc([C@@H]3C4CCC(C[C@@H]3c3ccc(Cl)cc3)N4C)on2)cc1 (some centres undefined)", "=", 6.34),
    ("Cc1ccc(Cc2cc([C@@H]3C4CCC(C[C@@H]3c3ccc(Cl)cc3)N4C)on2)cc1 (some centres undefined)", "=", 5.96),
    ("Cc1ccc(Cc2cc([C@@H]3C4CCC(C[C@@H]3c3ccc(C)cc3)N4C)on2)cc1 (some centres undefined)", "=", 6.11),
    ("Cc1ccc([C@H]2CC3CCC([C@H]2c2cc(Cc4ccc(F)cc4)no2)N3C)cc1 (some centres undefined)", "=", 6.34),
    ("CN1C2CCC1[C@@H](c1cc(-c3ccc(Cl)cc3)no1)[C@@H](c1ccc(Cl)cc1)C2 (some centres undefined)", "<", 5.70),
    ("Cc1noc([C@@H]2C3CCC(C[C@@H]2c2ccc(Cl)cc2)N3C)c1-c1ccc(F)cc1 (some centres undefined)", "=", 6.33),
    ("Cc1ccc([C@H]2CC3CCC([C@H]2c2onc(C)c2-c2ccc(Cl)cc2)N3C)cc1 (some centres undefined)", "=", 6.28),
    ("Cc1ccc([C@H]2CC3CCC([C@H]2c2onc(C)c2-c2ccc(F)cc2)N3C)cc1 (some centres undefined)", "=", 6.46),
    ("CN1C2CCC1[C@@H](c1cc(-c3ccc(F)cc3)no1)[C@@H](c1ccc(Cl)cc1)C2 (some centres undefined)", "=", 6.26),
    ("Cc1ccc([C@H]2CC3CCC([C@H]2c2cc(-c4ccc(Cl)cc4)no2)N3C)cc1 (some centres undefined)", "<", 5.70),
]
